Test system: KM12
Assay procedure: NCI tumour cell line growth inhibition, 48 h
The source made the active and inactive calls. Rule as the data show it: active = GI50 up to about 1.1 µM and inactive = higher.
Outcome field: choose from true = active, false = inactive

In: # outcome recorded in this test, key = `COc1cc(O)c2c(=O)c(OC)c(-c3ccc4c(c3)OCO4)oc2c1`
Out: false

In: # outcome recorded in this test, key = `COC(=O)c1ccccc1/C=C1\Cc2c(ccc3c2CCC3)C1=O`
Out: false

In: # outcome recorded in this test, key = `O=C(CCCl)NN=C1NCCCCN1`
Out: false

In: # outcome recorded in this test, key = `O=C1C(Cl)=C(N2CCN(c3ncccn3)CC2)C(=O)c2c(O)ccc(O)c21`
Out: false

In: # outcome recorded in this test, key = CC(C)(CC(O)C#N)/[N+]([O-])=[N+](\[O-])C(C)(C)CC(O)C#N (stereo unspecified)
Out: false

In: # outcome recorded in this test, key = `C1=C(c2ccccc2)CN(c2ccccc2)OC1`
Out: false

In: # outcome recorded in this test, key = `CN(NC1=NCCO1)c1ccc2ccccc2c1`
Out: false

In: # outcome recorded in this test, key = Cc1ccc2c(c1)C(=O)C(C1OC(=O)c3ccccc31)C2 (stereo unspecified)
Out: false

In: # outcome recorded in this test, key = `COc1ccc(CCNC(=S)NC=C2C(=O)c3ccccc3C2=O)cc1OC`
Out: false

In: # outcome recorded in this test, key = `Oc1cc(-c2cccc(OC(F)(F)F)c2)nc2ccc(N3CCCC3)cc12`
Out: true

In: # outcome recorded in this test, key = `O=c1c2cc(Cl)ccc2n2nnc3ccc(NCCNCCO)c1c32`
Out: true
